Target: Recombinant human Cbl-b (aa 36-427) (Homo sapiens, UniProt Q13191)
Sequence (Q13191 36-427): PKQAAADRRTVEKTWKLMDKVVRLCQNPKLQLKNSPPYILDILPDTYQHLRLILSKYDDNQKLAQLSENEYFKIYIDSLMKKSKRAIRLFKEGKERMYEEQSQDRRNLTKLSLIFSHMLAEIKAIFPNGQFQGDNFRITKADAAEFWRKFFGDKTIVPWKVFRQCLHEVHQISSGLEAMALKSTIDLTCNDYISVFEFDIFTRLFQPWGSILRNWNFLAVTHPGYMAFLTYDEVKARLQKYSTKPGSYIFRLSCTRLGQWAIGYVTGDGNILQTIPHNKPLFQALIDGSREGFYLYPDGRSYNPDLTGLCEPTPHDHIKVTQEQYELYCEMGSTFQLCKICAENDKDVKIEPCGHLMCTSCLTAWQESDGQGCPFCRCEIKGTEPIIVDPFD
Test: Cbl-b Biochemical Assay (TR-FRET)
Settings: read-out: TR-FRET hCbl-b IC50
measurement-label: IC50

Request: // fetch IC50 given entry CCNc1cc(-c2ccccc2-c2nncn2C)cc(-c2nc3cc(CO)cc(C(F)(F)F)c3[nH]2)n1 [AAN-3]
Result: 10000 to 50000 nM

Request: // fetch IC50 given entry COC(=O)C1(c2cc(F)c3oc(-c4cc(-c5ccc(F)cc5-c5nncn5C)cc(C5CC5)n4)nc3c2)CC1 [AGM-8]
Result: 200 to 1000 nM

Request: // fetch IC50 given entry Cn1cnnc1-c1cc(F)ccc1-c1cccc(-c2nc3cc(CN[C@@H]4CCC[C@@H]4O)cc(C(C)(C)C)c3o2)c1 [EV-9]
Result: < 200 nM

Request: // fetch IC50 given entry Cn1cnnc1-c1cc(F)ccc1-c1cccc(-c2nc3cc(CN[C@H]4CCC[C@H]4O)cc(C(F)(F)F)c3o2)c1 [HI-2]
Result: < 200 nM

----------
Molecular target: Recombinant human c-Cbl (aa 47-435) (Homo sapiens, UniProt P22681)
Sequence (P22681 47-435): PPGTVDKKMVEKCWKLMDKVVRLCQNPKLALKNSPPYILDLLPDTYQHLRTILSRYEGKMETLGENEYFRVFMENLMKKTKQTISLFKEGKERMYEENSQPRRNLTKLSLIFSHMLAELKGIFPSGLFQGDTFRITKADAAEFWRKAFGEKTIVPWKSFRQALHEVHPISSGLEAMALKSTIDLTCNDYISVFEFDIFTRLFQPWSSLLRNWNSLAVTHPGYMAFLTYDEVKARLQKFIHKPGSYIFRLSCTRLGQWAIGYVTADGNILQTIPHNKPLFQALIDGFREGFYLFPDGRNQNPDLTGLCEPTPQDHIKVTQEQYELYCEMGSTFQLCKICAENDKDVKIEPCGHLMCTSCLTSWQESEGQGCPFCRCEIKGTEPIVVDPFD
Assay: c-Cbl Biochemical Assay (TR-FRET)
Details: hc-Cbl Biochemical Assay (TR-FRET); read-out: TR-FRET hcCbl IC50
measurement-label: IC50

Solved entries:
Request: // fetch IC50 given entry COCCNCc1ccc2oc(-c3cccc(-c4ccc(F)cc4-c4nncn4C)c3)nc2c1
Result: 200 to 1000 nM

Request: // fetch IC50 given entry Cn1cnnc1-c1cc(F)ccc1-c1cccc(-c2nc3cc(CN[C@@H]4CCC[C@@H]4O)ccc3s2)c1
Result: < 200 nM

Request: // fetch IC50 given entry CO[C@@H](C)CNCc1cc(F)c2oc(-c3cc(-c4ccc(F)cc4-c4nncn4C)cc(C4CC4)n3)nc2c1
Result: < 200 nM

Request: // fetch IC50 given entry COc1cc(CNCC2CCCC2)cc2nc(-c3cccc(-c4ccc(F)cc4-c4nncn4C)c3)oc12
Result: < 200 nM

Continuing:
Request: // fetch IC50 given entry Cn1cnnc1CC1(c2cccc(-c3nc4cc(C(=O)N5CCCC5)cc(C(F)(F)F)c4[nH]3)c2)COC1
Result: 10000 to 50000 nM

Request: // fetch IC50 given entry C[C@H](c1cc(C(F)(F)F)c2[nH]c(-c3cccc(C4(Cc5nncn5C)COC4)c3)nc2c1)N1CCC2(CC2)C1
Result: 200 to 1000 nM

Request: // fetch IC50 given entry Cn1cnnc1-c1cc(F)ccc1-c1cccc(-c2nc3cc(CNC[C@H]4CCCO4)cc(C(F)(F)F)c3o2)c1
Result: < 200 nM

Request: // fetch IC50 given entry Cn1cnnc1-c1cc(F)ccc1-c1cccc(-c2nc3cc(CNCC4COC4)c(F)c(F)c3o2)c1
Result: 200 to 1000 nM

Request: // fetch IC50 given entry Cn1cnnc1-c1cc(F)ccc1-c1cccc(-c2nc3cc(CO)ccc3[nH]2)c1
Result: 10000 to 50000 nM

----------
System: Jurkat (clone E6-1) cells with NFAT luciferase reporter
Assay: Jurkat reporter assay (NFAT Luciferase)
Type: cell-based
Conditions: Homo sapiens; Jurkat NFAT luciferase reporter cells, anti-CD3 stimulation, 6 hr; read-out: Jurkat NFAT EC50
measurement-label: EC50

Solved entries:
Request: // fetch EC50 given entry COC[C@@H](C)NCc1cc(F)c2oc(-c3cc(-c4ccc(F)cc4-c4nncn4C)cc(C4CC4)n3)nc2c1
Result: 200 to 1000 nM

Request: // fetch EC50 given entry C[C@@H]1CN(Cc2cc(C(F)(F)F)c3[nH]c(-c4cccc(-c5ccc(F)cc5-c5nncn5C)c4)nc3c2)CCO1
Result: 1000 to 10000 nM

Request: // fetch EC50 given entry Cn1cnnc1-c1cc(F)ccc1-c1cccc(-c2nc3cc(CN[C@@H]4CCC[C@@]4(C)O)cc(C(F)(F)F)c3o2)c1
Result: 200 to 1000 nM

Request: // fetch EC50 given entry Cn1cnnc1-c1cc(F)ccc1-c1cccc(-c2nc3cc(CN[C@@H]4CCC[C@@H]4O)ccc3[nH]2)c1
Result: 1000 to 10000 nM

Request: // fetch EC50 given entry Cn1cnnc1-c1cc(F)ccc1-c1cccc(-c2nc3cc(CN[C@@H]4CCC[C@@H]4O)ccc3o2)c1
Result: < 200 nM

Continuing:
Request: // fetch EC50 given entry Cn1cnnc1-c1cc(F)ccc1-c1cccc(-c2nc3cc(CNCC4(O)CCC4)cc(C(F)(F)F)c3o2)c1
Result: 200 to 1000 nM

Request: // fetch EC50 given entry CN(Cc1cc(F)c2oc(-c3cc(-c4ccc(F)cc4-c4nncn4C)cc(C4CC4)n3)nc2c1)[C@@H]1CCC[C@@H]1O
Result: 200 to 1000 nM

----------
System: Jurkat (clone E6-1) cells with NFAT luciferase reporter
Test: Jurkat reporter assay (NFAT Luciferase)
Format: cell-based
Conditions: Homo sapiens; Jurkat NFAT luciferase reporter cells, anti-CD3 stimulation, 6 hr; read-out: Jurkat NFAT EC50
measurement-label: EC50

Solved entries:
Request: Write EC50 of COC[C@H](C)NCc1cc(C)c2oc(-c3cc(-c4ccc(F)cc4-c4nncn4C)cc(C4CC4)n3)nc2c1 ; system used: Jurkat (clone E6-1) cells with NFAT luciferase reporter
Result: < 200 nM

Request: Write EC50 of Cn1cnnc1-c1cc(F)ccc1-c1cc(-c2nc3cc(CNCC(C)(C)O)cc(F)c3o2)cc(C2CC2)c1 ; system used: Jurkat (clone E6-1) cells with NFAT luciferase reporter
Result: < 200 nM

Request: Write EC50 of Cn1cnnc1-c1cc(C#N)ccc1-c1cc(-c2nc3cc(CNCC4CCC4)cc(F)c3o2)nc(C2CC2)c1 ; system used: Jurkat (clone E6-1) cells with NFAT luciferase reporter
Result: < 200 nM

Then this molecule:
Request: Write EC50 of Cn1cnnc1-c1cc(F)ccc1-c1cc(-c2nc3cc(CN[C@@H]4CCC[C@@]4(C)O)cc(F)c3o2)nc(C2CC2)c1 ; system used: Jurkat (clone E6-1) cells with NFAT luciferase reporter
Result: 1000 to 10000 nM

----------
Test system: Jurkat (clone E6-1) cells with NFAT luciferase reporter
Test: Jurkat reporter assay (NFAT Luciferase)
Format: cell-based
Settings: Homo sapiens; Jurkat NFAT luciferase reporter cells, anti-CD3 stimulation, 6 hr; read-out: Jurkat NFAT EC50
pEC50: −log10 of the molar value.
measurement-label: pEC50

Request: // fetch pEC50 given entry Cn1cnnc1-c1cc(F)ccc1-c1cccc(-c2nc3cc(CN[C@@H]4CCC[C@@]4(O)C(F)(F)F)cc(C(F)(F)F)c3o2)c1 [JI-3]
Result: > 6.70

Request: // fetch pEC50 given entry Cn1cnnc1-c1cc(F)ccc1-c1cccc(-c2nc3cc(CN[C@@H]4CCC[C@@H]4O)cc(C(C)(F)F)c3o2)c1 [FJ-2]
Result: > 6.70

Request: // fetch pEC50 given entry Cn1cnnc1-c1cc(F)ccc1-c1cc(-c2nc3cc(CN[C@@H]4CCC[C@]4(C)O)cc(F)c3o2)nc(C2CC2)c1 [AFL-2]
Result: 5.00 to 6.00

Request: // fetch pEC50 given entry Cc1c(F)c(CNCC2(O)CCC2)cc2nc(-c3cc(-c4ccc(F)cc4-c4nncn4C)cc(C4CC4)n3)oc12 [AHJ-1]
Result: > 6.70

Continuing:
Request: // fetch pEC50 given entry Cn1cnnc1-c1cc(F)ccc1-c1cccc(-c2nc3cc(CNS(C)(=O)=O)cc(C(F)(F)F)c3o2)c1 [EC-1]
Result: 5.00 to 6.00

Request: // fetch pEC50 given entry Cc1cc(CN(C)[C@@H]2CCC[C@@H]2O)cc2nc(-c3cccc(-c4ccc(F)cc4-c4nncn4C)c3)oc12 [HY-3]
Result: 6.00 to 6.70

Request: // fetch pEC50 given entry Cc1cc(CNCC(C)(C)O)cc2nc(-c3cccc(-c4ccc(F)cc4-c4nncn4C)c3)oc12 [IK-1]
Result: > 6.70
